System: HeLa Kyoto;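 note: synchronized HeLa Kyoto cells (double thymidine block for G1/S, nocodazole release for mitosis), protein amounts in NP-40 versus SDS lysates quantified by mass spectrometry, three biological replicates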
Test: solubility change mitosis vs G1/S (difference of NP-40 vs SDS log2 ratios) (log2 ratio difference); higher = more soluble in mitosis
readoutType: solubility change mitosis (log2)
One number for each entry.

query: For the sequence MAAAAAGTATSQRFFQSFSDALIDEDPQAALEELTKALEQKPDDAQYYCQRAYCHILLGNYCVAVADAKKSLELNPNNSTAMLRKGICEYHEKNYAAALETFTEGQKLDIETGFHRVGQAGLQLLTSSDPPALDSQSAGITGADANFSVWIKRCQEAQNGSESEVWTHQSKIKYDWYQTESQVVITLMIKNVQKNDVNVEFSEKELSALVKLPSGEDYNLKLELLHPIIPEQSTFKVLSTKIEIKLKKPEAVRWEKLEGQGDVPTPKQFVADVKNLYPSSSPYTRNWDKLVGEIKEEEKNEKLEGDAALNRLFQQIYSDGSDEVKRAMNKSFMESGGTVLSTNWSDVGKRKVEINPPDDMEWKKY [SUGT1] , what solubility change mitosis (log2) is on record?
result: -0.0323
